Data origin, for the record: patent US20200283478A1

Catalogue of pIC50 readings, one per entry.
- tested_target: T1, PCSK9 (proprotein convertase subtilisin/kexin type 9), His-tagged, full-length (human, UniProt Q8NBP7 31-692)
- T1 construct: Captured by the His tag (SPR Methods 1 and 2), amine-coupled (Method 3), or His-tagged in TR-FRET; also called His-PCSK9
- T1 sequence (Q8NBP7 31-692 limits assumed): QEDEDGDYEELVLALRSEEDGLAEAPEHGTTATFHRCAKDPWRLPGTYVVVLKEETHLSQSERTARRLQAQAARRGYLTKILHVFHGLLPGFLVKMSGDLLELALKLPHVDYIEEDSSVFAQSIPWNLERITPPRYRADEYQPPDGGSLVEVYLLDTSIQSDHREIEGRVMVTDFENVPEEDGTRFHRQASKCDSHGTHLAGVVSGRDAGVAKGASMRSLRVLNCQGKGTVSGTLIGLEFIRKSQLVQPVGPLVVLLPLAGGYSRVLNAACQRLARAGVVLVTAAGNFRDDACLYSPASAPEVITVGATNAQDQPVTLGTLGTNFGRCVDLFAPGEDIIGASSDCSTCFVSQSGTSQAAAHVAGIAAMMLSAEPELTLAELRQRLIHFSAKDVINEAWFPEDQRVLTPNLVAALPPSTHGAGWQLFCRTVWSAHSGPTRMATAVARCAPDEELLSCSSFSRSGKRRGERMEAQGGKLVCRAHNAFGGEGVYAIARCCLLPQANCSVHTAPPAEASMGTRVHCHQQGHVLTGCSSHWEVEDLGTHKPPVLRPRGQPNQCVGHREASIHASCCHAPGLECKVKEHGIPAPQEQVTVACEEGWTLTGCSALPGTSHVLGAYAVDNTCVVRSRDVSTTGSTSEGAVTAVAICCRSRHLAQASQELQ
- measurement_description: TR-FRET competition; competitor EGF(A)-Fc binding to His-PCSK9
pIC50: −log10 of the molar value. Bridge positions count the residues as written; N and C are the ends.

>  <binder>
Ac-TVFTSWEEYLDWVGGSGCWNLKRIGSQGC-NH2 (disulfide 18-29 (inferred), Two Cys, disulfide-cyclized) [Compound 13]

>  <pIC50>
8.00

$$$$
>  <binder>
Ac-TVFTSWEEYLDWVGSGGCRLPWNLQRIGLPC-NH2 (disulfide 18-31 (inferred), Two Cys, disulfide-cyclized) [Compound 25]

>  <pIC50>
6.11

$$$$
>  <binder>
Ac-TVFTSWEEYLDWVGSGCWNLGRIGSQGC-NH2 (disulfide 17-28 (inferred), Two Cys, disulfide-cyclized) [Compound 11]

>  <pIC50>
6.47

$$$$
>  <binder>
Ac-TVFTSWEEYLDWVGSGCRLPWNLQRIGLPC-NH2 (disulfide 17-30 (inferred), Two Cys, disulfide-cyclized; also called Pep2-8p4; Pep2-8_K9gvpep4) [Compound 19]

>  <pIC50>
8.05

$$$$
>  <binder>
Ac-TVFTSWEEYLDWVGSGGCFLPWNLQRIGLLC-NH2 (disulfide 18-31 (inferred), Two Cys, disulfide-cyclized) [Compound 38]

>  <pIC50>
6.33

$$$$
>  <binder>
Ac-TVFTSWEEYLDWVGSGCWNLKRVGSQGC-NH2 (disulfide 17-28 (inferred), Two Cys, disulfide-cyclized) [Compound 12]

>  <pIC50>
6.72

$$$$
>  <binder>
Ac-TVFTSWEEYLDWVGSGGCWNLKRIGSQGC-NH2 (disulfide 18-29 (inferred), Two Cys, disulfide-cyclized) [Compound 14]

>  <pIC50>
8.05

$$$$
